Here, each record is paired with measured growth inhibition data.
- Assay Method Text: NCI Yeast Anticancer Drug Screen. Data for the rad50 strain (AID 155);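 also: 0% = growth of vehicle-only cultures of the same strain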
- Experimental Setup: S. cerevisiae rad50 strain growth inhibition, hits give high values; at 50.0 µM unless noted
- Description: Growth inhibition of yeast strains with defined genetic alterations is measured as a screen for potential anti-cancer activity. Selected strains with alterations in DNA damage repair or cell cycle control were exposed to compounds and growth inhibition was measured relative to vehicle treated controls. The strain used in this assay is rad50
This is part of a sample that, as a whole, favours compounds with a hit. Of some 79,000 tested, about 15% had one in any assay.
Parameter Measured: growth inhibition (%)

| Smiles Code | Numeric Value |
| --- | --- |
| Oc1ccccc1/C=N/N1C(=S)N(C23CC4CC(CC(C4)C2)C3)C(=Nc2ccccc2)C1=Nc1ccccc1 | -8.55 |
| CCOC(=O)c1ccc(O)c(NC(C)=O)c1 | -11.7 |
| COc1cc(O)c(C(=O)/C=C/c2ccccc2)c(OC)c1 | 1.05 |
| CCOC(=O)Cc1ccc2ccccc2c1 | 7.3 |
| COc1cc(C)c(C)c(OC(=O)c2c(C)c(C)c(OC)c(C)c2OC)c1C | 10.3 |

###

- Assay Method Text: NCI Yeast Anticancer Drug Screen. Data for the mlh1 rad18 strain (AID 175)
- Experimental Setup: S. cerevisiae mlh1 rad18 strain growth inhibition; at 50.0 µM unless noted
The panel holds about 79,000 compounds, 15% with a hit somewhere; the sample as a whole holds those more often. Active and inactive are the calls of the source. No stated cut-off is given here; in the data, active means growth inhibition above about 70%; inactive means the rest.
Classes used: 1 for active, -1 for inactive

| Compound | Classification |
| --- | --- |
| CCOC(=O)c1ccc(NCc2ccc(CNc3ccc(C(=O)OCC)cc3)cc2)cc1 | -1 |
| Cc1cc2c(C(C)C)c(O)c(O)c(C=NC(C)c3ccccc3)c2c(O)c1-c1c(C)cc2c(C(C)C)c(O)c(O)c(C=NC(C)c3ccccc3)c2c1O (centres undefined) | -1 |
| CCOC(=O)c1c(C)[nH]c(C=O)c1C | -1 |
| CCCSCCC(NC(=O)c1ccccc1)C(=O)O (centres undefined) | -1 |
| COc1cc(OCc2ccc3oc(=O)c(-c4ccccc4)nc3c2)cc(OC)c1OC | -1 |
| Clc1cccc(NC2=NCCN=C(Nc3cccc(Cl)c3Cl)SS2)c1Cl | -1 |
| O=C(O)c1c(O)cc(=O)oc1-c1ccc(Cl)cc1 | -1 |
| COCC(C)OC(=O)COc1ccccc1 (centres undefined) | -1 |
| CN(C)c1cccc2ccccc12 | -1 |
| Cc1cccc(OC(=O)NC2CCCCC2)c1 | -1 |
| Cc1cc(Cl)c(OCC(=O)O)cc1C | -1 |
| FC1=C(F)C2(F)C3CCC(O3)C2(F)C(Br)=C1F (centres undefined) | -1 |
| N#CC(C(=O)CCC(=O)NCCc1ccccc1)c1nc2ccccc2s1 (centres undefined) | -1 |
| COc1cccc(C(=O)C2N=NCC2c2ccccc2)c1 (centres undefined) | -1 |
| CC(=O)NC1CCC(CCC2CCCCC2)CC1 (centres undefined) | -1 |
| O=Cc1cccc2ccc3cccc(C(=O)Cl)c3c12 | -1 |
| O=C(C#Cc1ccccc1)Nc1ccccc1CC(c1c[nH]c2ccccc12)c1c[nH]c2ccccc12 | -1 |
| CCOC(=O)NC(=O)c1cn(CCCCCCCCCCC(=O)N2CCN(CCn3cc(C(=O)NC(=O)OCC)c(=O)[nH]c3=O)CC2)c(=O)[nH]c1=O | -1 |
| O=C(CC1SC(=Nc2ccccc2Cl)NC1=O)Nc1ccc(Cl)cc1Cl (centres undefined) | -1 |
| CNc1cc(C(C)C)ccc1C | -1 |
| Cc1cc2ccccc2c[n+]1CC(O)C[n+]1cc2ccccc2cc1C | -1 |
| COc1cc2c(=O)[nH]c3cc(N)ccc3c2cc1N | -1 |
| CN(N)c1nc(N)c(C#N)c(C#N)c1C#N | -1 |
| Oc1cc(O)c2cc(O)c(-c3ccc(O)c(O)c3)[o+]c2c1 | -1 |
| COc1cc2c(cc1OC)C1Cc3ccccc3CCN1CC2 (centres undefined) | -1 |
| CC1(CO)COC(C)(C)OC1 | -1 |
| CC(C)OC(=O)CC1NS(=O)(=O)c2ccccc21 (centres undefined) | -1 |
| CC(C)N1CCN(c2ccncc2S(=O)(=O)N2CCCC2)CC1 | -1 |
| CCC(O)c1ccc(OCc2ccccc2)c(OC)c1 (centres undefined) | -1 |
| Oc1ccc(Br)cc1/C=N/N1CCN(/N=C/c2cc(Br)ccc2O)CC1 | -1 |
| O=C(NCCNC(=O)C(Br)(Br)Br)C(Br)(Br)Br | 1 |
| CC(=O)OC(C#N)c1ccco1 (centres undefined) | -1 |
| CC(=O)OCCc1cc2ccccc2oc1=O | -1 |
| Cc1ccc([N+](=O)[O-])cc1NC(=O)N(Cc1ccccc1)Cc1ccccc1 | -1 |
| C=CCSCc1ccccc1 | -1 |
| O=C(O)C1Cc2c([nH]c3ccccc23)CN1 (centres undefined) | -1 |
| CCCC(c1ccc(N(C)C)cc1)c1ccc(N(C)C)cc1 | -1 |
| Cc1ccc(C(=O)NNC(=O)c2ccc(C)cc2)cc1 | -1 |
| Cc1cc2nncn2c2ccccc12 | -1 |
